- study.system: noradrenaline (NA) reuptake in synaptosomes (Rattus norvegicus)
- Construct: in synaptosomes as described in WO 97/16451
- Sequence (Q63380 1-617): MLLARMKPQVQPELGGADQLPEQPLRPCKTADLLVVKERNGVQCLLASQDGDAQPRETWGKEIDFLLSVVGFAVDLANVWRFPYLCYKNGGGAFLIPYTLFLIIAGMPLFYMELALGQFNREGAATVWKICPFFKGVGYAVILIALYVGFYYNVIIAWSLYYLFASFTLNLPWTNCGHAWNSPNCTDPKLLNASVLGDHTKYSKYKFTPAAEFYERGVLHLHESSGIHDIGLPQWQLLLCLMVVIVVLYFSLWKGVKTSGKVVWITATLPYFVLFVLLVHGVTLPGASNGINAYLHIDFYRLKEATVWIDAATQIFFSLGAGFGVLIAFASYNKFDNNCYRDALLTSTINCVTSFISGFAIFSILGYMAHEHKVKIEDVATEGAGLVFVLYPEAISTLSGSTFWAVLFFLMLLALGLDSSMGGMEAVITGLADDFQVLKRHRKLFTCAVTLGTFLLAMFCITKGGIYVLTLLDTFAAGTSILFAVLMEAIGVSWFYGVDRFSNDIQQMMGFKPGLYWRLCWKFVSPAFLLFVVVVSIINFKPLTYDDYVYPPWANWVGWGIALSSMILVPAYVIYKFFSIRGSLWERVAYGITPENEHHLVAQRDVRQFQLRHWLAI
- assay.protocol: Inhibition of NA reuptake in synaptosomes
- measurement.conditions: 3H-NA, read-out: NA-uptake IC50
Parameter: IC50. Scope: all listed entries.
Report the value in nM with no unit label.

CC1(C)CC(OC(c2ccccc2)c2ccccc2)CC(C)(C)N1
60

// query Fill in: IC50 of CC1(C)CC(OC(c2ccc(F)cc2)c2ccc(F)cc2)CC(C)(C)N1 is ___
// result 590

* * *

- study.system: dopamine (DA) reuptake in synaptosomes (Rattus norvegicus, UniProt P23977)
- Construct: in synaptosomes as described in WO 97/16451
- Sequence (P23977 whole entry): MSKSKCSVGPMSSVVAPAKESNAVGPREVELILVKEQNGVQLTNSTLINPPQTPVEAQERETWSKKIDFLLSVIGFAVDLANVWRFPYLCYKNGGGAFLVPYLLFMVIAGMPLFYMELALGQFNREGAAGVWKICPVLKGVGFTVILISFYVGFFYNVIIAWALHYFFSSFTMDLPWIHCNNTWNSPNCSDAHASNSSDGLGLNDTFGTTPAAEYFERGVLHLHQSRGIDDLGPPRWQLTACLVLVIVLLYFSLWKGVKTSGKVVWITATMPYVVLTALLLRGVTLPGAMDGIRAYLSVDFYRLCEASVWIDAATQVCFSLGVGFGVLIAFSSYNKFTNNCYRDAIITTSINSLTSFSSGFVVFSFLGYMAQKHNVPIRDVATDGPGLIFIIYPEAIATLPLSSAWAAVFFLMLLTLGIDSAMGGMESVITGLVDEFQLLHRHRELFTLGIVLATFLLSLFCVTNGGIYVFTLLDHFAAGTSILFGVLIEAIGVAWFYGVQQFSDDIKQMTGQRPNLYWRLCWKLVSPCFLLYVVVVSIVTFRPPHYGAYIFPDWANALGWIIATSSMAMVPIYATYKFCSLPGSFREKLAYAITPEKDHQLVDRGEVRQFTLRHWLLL
- assay.protocol: Inhibition of DA reuptake in synaptosomes
- measurement.conditions: 3H-DA, read-out: DA-uptake IC50
attribute.measured: pIC50
Scale: pIC50 equals -log10([C]), with [C] in mol/L.

CC1(C)CC(OC(c2ccc(F)cc2)c2ccc(F)cc2)CC(C)(C)N1
7.42

Now for the compound whose pIC50 we want.
// query Fill in: pIC50 of CC1(C)CC(OC(c2ccccc2)c2ccccc2)CC(C)(C)N1 is ___
// result 6.40
